settings: in toluene, 318.15 K

entry smiles	solubility (mole fraction)
CCCCCCCC[n+]1ccn(C)c1.O=[N+]([O-])[O-]	0.000699
CCCCCC[n+]1ccn(C)c1.O=[N+]([O-])[O-]	0.000585
